# Assay summary: NCI Yeast Anticancer Drug Screen. Data for the rad50 strain (AID 155);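 further: 0% = growth of vehicle-only cultures of the same strain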
# Condition details: S. cerevisiae rad50 strain growth inhibition; at 50.0 µM; hits give high values
This is part of a sample that, as a whole, favours compounds with a hit. Of some 79,000 tested, about 15% had one in any assay.
# key: entry, value: growth inhibition
The reply should contain only the number, in %.

Molecule	Measurement unit	Endpoint value
COC(=O)CC1(C(=O)OC)Nc2ccccc2C(=O)O1 (stereo not given)	%	2.65

Given item `CCCCNC(=O)CSc1cc(Cl)c(Cl)cc1Cl` , the value recorded as its growth inhibition is 15.2

Given item O=C(O)C(C(=O)O)C(c1cccc([N+](=O)[O-])c1)C(c1ccccc1)[N+](=O)[O-] (stereo not given) , the value recorded as its growth inhibition is 52.5

Given item `CCN(CC)CCCNc1cc(OC)c(Cl)c2cccnc12` , the value recorded as its growth inhibition is 22.2

Given item `Nc1n[nH]c(=S)s1` , the value recorded as its growth inhibition is 6.8

Given item `N#C/C(=C\c1c(Cl)cccc1Cl)c1nc(-c2ccc(Cl)cc2)cs1` , the value recorded as its growth inhibition is -32.4

Given item `CC(C)C(CNC(=S)Nc1ccccc1)(c1ccccc1)c1ccccc1` , the value recorded as its growth inhibition is 6.9

Given item `O=C(NC(=O)c1ccccc1Cl)Nc1ccc(C(O)(C(F)(F)F)C(F)(F)F)cc1` , the value recorded as its growth inhibition is 53.8

Given item CC(=O)OCC1OC(N2C(c3ccccc3)=CC(c3ccco3)C(C#N)=C2S)C(OC(C)=O)C(OC(C)=O)C1OC(C)=O (stereo not given) , the value recorded as its growth inhibition is 0.95

Given item `Cc1ccccc1NC(=O)CC(=O)n1nc(-c2ccccc2)c(N=Nc2ccc([N+](=O)[O-])cc2)c1-c1ccccc1` , the value recorded as its growth inhibition is 46.4

* * *

# Assay summary: NCI Yeast Anticancer Drug Screen. Data for the mlh1 rad18 strain (AID 175)
# Condition details: S. cerevisiae mlh1 rad18 strain growth inhibition; at 50.0 µM; hits give high values
This is part of a sample that, as a whole, favours compounds with a hit. Of some 79,000 tested, about 15% had one in any assay. The source made the active and inactive calls. Rule as the data show it: active = growth inhibition above about 70%; inactive = the rest.
Measure: growth inhibition

Please review the following examples before continuing.
Compound	Measure	Endpoint value
CC(C)(C)C1CCC(O)(CSc2ccccc2)CC1 (stereo unspecified)	growth inhibition	-10.6% (inactive)
CCCCCCCOc1ccc(/C=C\c2cc[n+](CCCCCCCC[n+]3ccc(/C=C\c4ccc(OCCCCCCC)cc4)cc3)cc2)cc1	growth inhibition	10.2% (inactive)
O=C1CSC=NN1c1ccccc1	growth inhibition	3.9% (inactive)
Cc1ccc(C(=O)c2sc(Nc3cccc(C(F)(F)F)c3)c(C#N)c2N)c(C)c1	growth inhibition	-12.6% (inactive)
CCOc1ccc(NC(=S)N/C=C(/C#N)C(N)=O)cc1	growth inhibition	-3.5% (inactive)

Given item CC1(CCl)Nc2ccccc2C(=O)N1c1ccccc1 (stereo unspecified) , the value recorded as its growth inhibition is 8.5% (inactive)

Given item COC(=O)/C=C1\SC(OC)(N(C)c2ccccc2)N(C)C1=O (stereo unspecified) , the value recorded as its growth inhibition is 19.1% (inactive)

Given item C=C(c1nc2ccc(Cl)cc2[nH]c1=O)C(O)c1ccc(C(O)C(=O)c2nc3ccc(Cl)cc3[nH]c2=O)cc1 (stereo unspecified) , the value recorded as its growth inhibition is 9.05% (inactive)
